Consider the following compounds and their measured MIC readings.
Test system: S. aureus ATCC 33591 (Sa 91)
assay-method-text: MIC, broth microdilution, Sa 91
Assay type: cell-based
experimental-setup: Staphylococcus aureus, ATCC33591; Table 1, HT series; read-out: Minimum inhibitory concentration (MIC) Sa 91
Note: unit µg/mL is implicit; provide only the numeric part.

compound_string=Oc1ccc(-c2nc(-c3cccc(Cl)c3)cs2)cc1O units_symbol=µg/mL endpoint_result=4
compound_string=Oc1ccc(-c2nc(-c3ccc(Br)cc3)cs2)cc1O units_symbol=µg/mL endpoint_result=4

// moving on: another record for MIC
Task item: // lookup MIC for Oc1ccc(-c2nc(-c3ccc(Cl)cc3Cl)cs2)cc1O
Reply: 4

Entry source: patent US20250270199A1
